- study.target: UniProt P00690
- Sequence (P00690 16-511): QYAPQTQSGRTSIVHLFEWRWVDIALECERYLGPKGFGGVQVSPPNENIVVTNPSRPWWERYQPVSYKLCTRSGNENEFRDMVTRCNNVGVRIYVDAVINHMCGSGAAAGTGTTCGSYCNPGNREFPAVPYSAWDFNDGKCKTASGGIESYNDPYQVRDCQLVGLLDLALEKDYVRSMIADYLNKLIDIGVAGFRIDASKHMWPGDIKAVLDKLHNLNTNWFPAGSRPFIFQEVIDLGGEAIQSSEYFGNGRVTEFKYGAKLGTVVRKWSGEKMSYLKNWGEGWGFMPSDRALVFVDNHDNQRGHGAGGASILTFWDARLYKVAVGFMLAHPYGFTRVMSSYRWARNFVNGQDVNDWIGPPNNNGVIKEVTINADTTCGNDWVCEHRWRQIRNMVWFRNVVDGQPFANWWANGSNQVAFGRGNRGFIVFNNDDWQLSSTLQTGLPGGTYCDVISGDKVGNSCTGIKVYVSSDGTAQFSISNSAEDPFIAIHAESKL
- procedure.details: α-amylase inhibition assay
- Format: biochemical, Porcine
- experimental.parameters: in vitro; porcine pancreatic α-amylase, starch substrate; acarbose as standard
reported.property: pIC50
Field pIC50 (float): negative decimal logarithm of the concentration in molar.

{"columns": ["given.smiles", "readout.number"],
 "data": [
  ["O=[N+]([O-])c1ccc(C(CSc2nc3ccccc3[nH]2)=NNc2nc(-c3ccccc3F)cs2)cc1", 5.72]
]}

With those in mind, consider the next compound.
Supply measured pIC50 of O=[N+]([O-])c1ccc(C(CSc2nc3ccccc3[nH]2)=NNc2nc(-c3ccc(F)cc3)cs2)cc1 in your reply.
5.89
